test_details: yeast display, Sf9 membrane polyspecificity reagent, FACS + sequencing; frameworks hold sequencing errors
test_readout: polyreactivity (PSR sort gate)

Here's what some known entries look like.
QVLLVESGGGLVQAGGSLRLSSAASGSIFNRYAMGWYRQAPGKDSEFVAAITYSGGSTYYADSVKGRFTISRDNAKNNVYLQMIRVKPEDTAVYYCAKAYYPKGRYGFDYWGQGTQVTVSS = high polyreactivity
QVQLVESGGGLVQAGGSLRLSCAASGRTFRYYAMGWYRQAPGKERELVAAITGSGGSTYYADSVKGRFTISRDTAKNTVYLQMNSLKPEDTAVYYCATRWALRWRGGYWGQGTQVTVSS = high polyreactivity
QVQHVESGGGLVQAGGSLRLSCAASGSTFPGYAMGWYRQAPGKERELVAAISKRGGSTRYADSVKGRFTISRDNAINTVYLQMNSLKPEDTAVYYCAASYSYSGSGGGYWGQGTQVTVSS = high polyreactivity
QVQLVESGGGLVQAGGSLRLSCAASGFTFGYYAMGWYRQAPGKERELVAGITTDGSTNYADSVKGRFTISRDNAKNTVYLQMNSLKPEDTAVYYCAADDLHWLNSKRYRGRDYWGQGTQVTVSS = low polyreactivity
QVQLVESGGGLVQAGGSLRLTCAASGLIFFTPYALGWYRQAPGTESELVAVITWRGASTYYADSVKGRFTISRDNAKHTVYFQMNSLKPEDTAVYYCAAKLCSVWKESYDSWGQGTQVTVSS = low polyreactivity

Entry `QVQLVESGGGLVQAGGSLRLSCAASGSTFYRNAMGWYRQAPGKERELVAAITSRGTRTFYADSVKGRFTISRDNAKNTVYLQMNSLKPEDTAVYYCAVTYQAEYEYDYWGQGTQVTVSS` : reported polyreactivity (PSR sort gate) = ? low polyreactivity

Entry `QVQLVESGGGLVQAGGILRLSCAASGFIFVDYSMGWYREAPAKESQLVAAISGRDGSTYYADSVKGRFTISRDNAKNTVYLQMNSLKPEDTAVYYCAADRIHSGTLYDYDYWGQGTQVTESS` has what polyreactivity (PSR sort gate)? low polyreactivity

Entry under review: `QVQLVESGGGLVQAGGSLRLSCAASGYTFIDNAMGWYRQAPGRERELVAAISDSAGDTYYADSVKGRFTISRDNAKNTVYLQMNSLKPEDTSVYYCAARGYLRGEQLYVFIRYDYWGHGTQVTVSS` . Reported polyreactivity (PSR sort gate)? low polyreactivity

// query polyreactivity (PSR sort gate) value for entry `QVQLVESVGGLVQAGGSLRLSCAATGFILAPYAMGWYRQSPGKETELVAAITRSGGITYYADSVKGRFTISRDNAKNTVYLQMNSLKPEDTAVYYCAARNYRYRYARAYDYWGQGTQVTVSS` high polyreactivity

Which polyreactivity (PSR sort gate) reading was recorded for the sequence `QVQLVESGGGLVQAGGSLRLSCAASGRIFPKYAMGWYRQAPGKERELVAAISSSGGSTYYADSVKGRFTISRDNAKNTVYLQMNSLKPEDTAVYYCAAEQYSYGYTIYEYWGQGTQVTVSS` ? high polyreactivity

Dear colleague, I am looking for the recorded polyreactivity (PSR sort gate) of the following sequence: `QVQLVESGGGLVQAGGSLRLSCAASGRTFGPYAMGWYRQAPGKEREMVAAIRFSGGSTYYADSVKGRFTISRDNAKNTVYLQMNSLKPEDTAVYYCNARLGSSKGRVEKYGSWGQGTQVTVSS` high polyreactivity

###

test_details: yeast display, Sf9 membrane polyspecificity reagent, FACS + sequencing; frameworks hold sequencing errors
test_readout: polyreactivity (PSR sort gate)

These recorded examples may help you get a feel for the data.
QVLLVESGGGLVHAGGSLRVSCASSGFTFKENAMGWYRQAPGKERELVAAISSTGGSTYYADSVKGRFTISRDNAKNTVFLLMNSLKPEDTAVYYCAASTYWYDGDYWGQGTQVTVSS = high polyreactivity
QVQLVESGGGLVQAGGSLRLSCAASGFTFPWYAMGWYRQAPGKERELVAAINTGGSTYYADSVKGRFTISRDNAKNTVYLQMNSLKPEDTAVYYCATLGRYRYLNTYYWGSHDYWGQGTQVTVSS = high polyreactivity
QVQLQESGGGLVHAGGSLRLSCAASGTISFINMMGWNRQAPGRERELVASINFGANTNYADSVKGRFTISRDNAKNTVYVQMNSLKPEDTAVYYCAVYDFDAYTLDYWGQGTLVTVSS = high polyreactivity
QVQLVETGGGLVQAGGSLRLSCAASGSIFLVYAMGWNRPAPGKQRQVVAAIRWSGGSTYYADSVKGRFTISRDNAKKTVYLQMNSLKPEDTAVYYCNAGESYSVKGGPYDSDYWGQGTQVTVSS = low polyreactivity
QVQLVESGGGLVQAGGSLRLSCAASGRTFPGNAMGGDKQAPGKERELVASINGRTTRTYYADSVKGRFTISRDNAKNTVYLQMTSLKPEDTAVYYCAADPPGYVYGKRYYWGQGTQVTVSS = high polyreactivity
QVQLVESGGGLVQAGGSLRLSCAPSGFIYHWNAMGWYRQAPGKERELLAAITWRGTNTYYADSVKGRFTISRDNAKNTVYLQMNRLKPEDTAVYYCAARYVTYYGTFDYWGLGTQVTVSS = low polyreactivity
QDQLVDSGGGLVQAGGSLRFSCAASGFIFRFNAMGWYRQAPGKERELVADIRWSSGSTYYADSVKGRYTISRDNAKNTVYLEMNSLKPEDTAVFYCAVTYLRVHYKFTPFDYWGQGTQVTVSS = low polyreactivity
QVQLVESGGGLDQARGSLRLSCAASGITFHPNAMGWYRQAPGKERELVAAISGRRSRTYYADSVKGRFIISRDNAKNTVYLLLNSLKPEDTAVYYCAKDHPSGRQYDYWGQGTQVTVSS = high polyreactivity

Return reported polyreactivity (PSR sort gate); argument: `QVQLVESGGGLVQAGGSLRLSCAASGSIFSYNAMGGYRQAPGKERELVAGITSGASTNYADSVKGRFTISRDNAKNTVYLQMNSLKPEDTAVYYCNADDIFRPRDDLYDYWGQGTQVTVSS` low polyreactivity

I have this sequence here, `QVQLVESGGGLVQAGGSLRLSCAASGFIFHLNAMGWYRQAPGKERELVAAIRSSGGSTYYADSVKGRFTISRDIAKNTVYFQMISMKREDTAVYYCAARGSSGLTRRGYYWGQGTQVNVSS` , and I need its recorded polyreactivity (PSR sort gate). high polyreactivity

Fill blank: measured polyreactivity (PSR sort gate) of the sequence `QVQLVDSGGGLVQAGGSLRLSCAASGRTFSYYGMGWYRQAPGQERELVACIRRRGGSTYYADSVKGRFTISRDNAKNNVSLQMNSLNPEDTAVYYCTAATYGDYSNLGYGYWGQGTQVTVSS` is ____. high polyreactivity

###

test_details: yeast display, Sf9 membrane polyspecificity reagent, FACS + sequencing; frameworks hold sequencing errors
test_readout: polyreactivity (PSR sort gate)

QVQLVESGGGLVQAGGSLRLSCAASGSIFSYNAMGWYRQAPGKERELVAAISWSGGSTYYADSVKGRFTISRDNAKNTVYLQMNSLKPEDTAVYYCNAYRYRQSSSDKYGYWGQGTQVTVSS = high polyreactivity
QVQLVESGRGLVQAGGSLRLSCAASGSIFTSYVMGWYRQAPGKERELVAAISQTGSSTYYADSVKGRFTISRDNAKNTVYLQMNSLKPEDTAVYYFAARRSRGSVRNYDYWGQGTKVTVSS = high polyreactivity

###

test_details: yeast display, Sf9 membrane polyspecificity reagent, FACS + sequencing; frameworks hold sequencing errors
test_readout: polyreactivity (PSR sort gate)

Worked examples follow.
QVQLVESGGGLVQAGGSLRLSCAASGRTFVSYAMGWYRQAPGKERELVADITIGGSTNYADSVKGRFTISRDNAKNTVYLLMNSLKPEDTAVYDCAAYYSYPWDTVTTVDLYDYWGQGTQVTVSS = low polyreactivity
QVQLVESGGGLVQAGGSLRLSFASSGRIFIAYAMGWYRQAPGIERELVAAITSGGGTYYADSVKGRFTISRDNAKNTVYLQMNSLKPVDTAVYYCAAACGRRYPDKFVAITPTYDFWGQGTQVTVSS = low polyreactivity
QVQLVESGGGLVQAGGSLRLSCAASGSIFKYYAMGWYRKAPGKERELVAAISYRVGRTYYADSVKGRFTISRDNAKNTVYLQMNSLKPEDTAVYYCNTAYLSGQEYDYWGQGTQVTVSS = high polyreactivity
QVQLVESGGGLVQAGGSLRLSCAASGRTLGVYAMGWYRPAPGKERELVATITAGGSITSYADSVKGRFTISRDNAKNTVYLQMNSLKPEDTAVYYCAADVPGNYRKYRYGRASSHDYWGQGTQVTVSS = low polyreactivity
QVQLVESGGGLFQAGGSLRLSCAASGSTSIYNAMGWYRQAPGKERELVAAIDVRGGGTYADSVKGRFTISRDNAKNTVYLQMNSMKPEDTAVYYCNADYARYPNGWFRIVGSGYWGQGTQVTVSS = low polyreactivity

Find the recorded polyreactivity (PSR sort gate) belonging to `QVQLVESGGGLDQAGGSLRLSCAASGRTFDFYAMGWYRQAPGKEMELVAAITFSTGSTTYADSVKGRFTISRDNAKNTVYLQMNSLKPEDTAVYYCAADGDGWWWSYVDRYDYWGQGTQVTVSS` and report it. low polyreactivity

Item under review: `QVQLVESGGGLVQAGGSLRLSCAASGRTFWYYTMGWYRQAPGKERELVAGITGTGGSTYYADSVKGRFTISRDNAKNTVYLQMNSLKPEDTAVYYCNALRRSQRYWDPYGYDYWGQGTQVTVSS` . Reported polyreactivity (PSR sort gate)? high polyreactivity

Consider the sequence shown here: `QVQLVESGGGLVQAGGSLRLICAASGFTFGYYAMGWYRQAPRKERELVAAISYTGGSTYYADSVKGRFTISRDNAMNTVYLQMNSLKPEDTAVYYCNAYSALYGSYNYWGQGTQVTVSS` What is its recorded polyreactivity (PSR sort gate)? high polyreactivity
